// reported Vmax per item
- Substrate: O=P(O)(O)O
- ASSAY_NAME: cells, lysate or membranes
- CONDITION_CONTEXT: co-substrate Ca2+; outward H+ gradient by NADH; room temperature; 5x more vesicles than WT; labelled compound
REPORTED_ENDPOINT: Vmax (µmol/min/mg)

YfkE (Bacillus subtilis subsp. subtilis str. 168; N252A) (protein) MNRIFFILVAAGVPLSVIGSLMHWPSAVLFAVYCVTIIALASYMGRATESLSIIAGPRIGGLLNATFGNAVELIISLFALKEGLTGIVLASLTGSVLGNLLLVAGLSFFVGGLKYKRQEFNIHDARHNSGLLIFAIIVAFVIPEVFSVGMGNASKLNLSIGISIIMILLYVAALYFKLVTHRGVYQPNNAAQTEEEEEPEWSGKVATIVLFAATIVVAYISENLVHTFHSVAEQFGWSELFIGVIIVAIVGAAAEHASAIIMAFKNKMDIAVEIAVGSTLQIAMFVAPVLVICSIFFPTSMPLVFTLPELVAMVSAVLLMIAISNDGDSNWFEGATLLAAYVIMAIGFFLL = 1.9e-05
YfkE (Bacillus subtilis subsp. subtilis str. 168; H256A) (protein) MNRIFFILVAAGVPLSVIGSLMHWPSAVLFAVYCVTIIALASYMGRATESLSIIAGPRIGGLLNATFGNAVELIISLFALKEGLTGIVLASLTGSVLGNLLLVAGLSFFVGGLKYKRQEFNIHDARHNSGLLIFAIIVAFVIPEVFSVGMGNASKLNLSIGISIIMILLYVAALYFKLVTHRGVYQPNNAAQTEEEEEPEWSGKVATIVLFAATIVVAYISENLVHTFHSVAEQFGWSELFIGVIIVAIVGNAAEAASAIIMAFKNKMDIAVEIAVGSTLQIAMFVAPVLVICSIFFPTSMPLVFTLPELVAMVSAVLLMIAISNDGDSNWFEGATLLAAYVIMAIGFFLL = 5.1e-05
YfkE (Bacillus subtilis subsp. subtilis str. 168; Q281A) (protein) MNRIFFILVAAGVPLSVIGSLMHWPSAVLFAVYCVTIIALASYMGRATESLSIIAGPRIGGLLNATFGNAVELIISLFALKEGLTGIVLASLTGSVLGNLLLVAGLSFFVGGLKYKRQEFNIHDARHNSGLLIFAIIVAFVIPEVFSVGMGNASKLNLSIGISIIMILLYVAALYFKLVTHRGVYQPNNAAQTEEEEEPEWSGKVATIVLFAATIVVAYISENLVHTFHSVAEQFGWSELFIGVIIVAIVGNAAEHASAIIMAFKNKMDIAVEIAVGSTLAIAMFVAPVLVICSIFFPTSMPLVFTLPELVAMVSAVLLMIAISNDGDSNWFEGATLLAAYVIMAIGFFLL = 1.9e-05
YfkE (Bacillus subtilis subsp. subtilis str. 168; N99A) (protein) MNRIFFILVAAGVPLSVIGSLMHWPSAVLFAVYCVTIIALASYMGRATESLSIIAGPRIGGLLNATFGNAVELIISLFALKEGLTGIVLASLTGSVLGALLLVAGLSFFVGGLKYKRQEFNIHDARHNSGLLIFAIIVAFVIPEVFSVGMGNASKLNLSIGISIIMILLYVAALYFKLVTHRGVYQPNNAAQTEEEEEPEWSGKVATIVLFAATIVVAYISENLVHTFHSVAEQFGWSELFIGVIIVAIVGNAAEHASAIIMAFKNKMDIAVEIAVGSTLQIAMFVAPVLVICSIFFPTSMPLVFTLPELVAMVSAVLLMIAISNDGDSNWFEGATLLAAYVIMAIGFFLL = 3.9e-05
